Origin of measurements: ChEMBL document CHEMBL3580606

- target under test: Adenosine receptor A2a (Homo sapiens)
- Sequence (P29274 whole entry): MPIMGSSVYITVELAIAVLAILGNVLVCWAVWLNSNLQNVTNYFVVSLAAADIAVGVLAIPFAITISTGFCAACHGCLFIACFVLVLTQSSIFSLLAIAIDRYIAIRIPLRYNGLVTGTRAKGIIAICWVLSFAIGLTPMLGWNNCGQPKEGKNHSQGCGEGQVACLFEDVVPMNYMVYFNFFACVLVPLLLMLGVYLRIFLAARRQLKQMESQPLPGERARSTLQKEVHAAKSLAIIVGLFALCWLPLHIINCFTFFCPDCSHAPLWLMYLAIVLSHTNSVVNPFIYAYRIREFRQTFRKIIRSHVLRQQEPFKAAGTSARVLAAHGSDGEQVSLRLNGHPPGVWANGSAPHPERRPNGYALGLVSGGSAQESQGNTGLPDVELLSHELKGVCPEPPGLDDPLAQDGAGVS
- test description: Displacement of [3H]-ZM241385 from human adenosine A2A receptor expressed in CHO cell membranes after 60 mins by scintillation counting analysis
- Set-up: concentration or dose not given beside the values
measured property: inhibition (%)
Report as a plain number; the unit % is understood.

Examples with their reported inhibition follow.
>>> experimental_result("Cn1cc2c(nc(N=C(Nc3ccc(F)cc3)Nc3ccc(F)cc3)n3nc(-c4ccco4)nc23)n1")
16
>>> experimental_result("COc1ccc(NC(=Nc2nc3nn(C)cc3c3nc(-c4ccco4)nn23)Nc2ccc(OC)cc2)cc1")
1
>>> experimental_result("Cn1cc2c(nc(N=C(Nc3ccc(Br)cc3)Nc3ccc(Br)cc3)n3nc(-c4ccco4)nc23)n1")
10
>>> experimental_result("Cn1cc2c(nc(N=C(Nc3ccccc3)Nc3ccccc3)n3nc(-c4ccco4)nc23)n1")
2
>>> experimental_result("Cn1cc2c(nc(N=C(NC3CCCCC3)NC3CCCCC3)n3nc(-c4ccco4)nc23)n1")
3
>>> experimental_result("CCN/C(=N\\c1nc2nn(C)cc2c2nc(-c3ccco3)nn12)NCCCN(C)C")
3

For the next question, use this molecule.
inhibition measured on Cc1ccc(NC(=Nc2nc3nn(C)cc3c3nc(-c4ccco4)nn23)Nc2ccc(C)cc2)cc1 = 1

###

- target under test: UniProt P29274
- test description: Displacement of [3H]-ZM241385 from human adenosine A2A receptor expressed in CHO cell membranes after 60 mins by scintillation counting analysis
- Design: concentration or dose not given beside the values
measured property: inhibition (%)
Report as a plain number; the unit % is understood.

Examples with their reported inhibition follow.
>>> experimental_result("COc1cccc(NC(=Nc2nc3nn(C)cc3c3nc(-c4ccco4)nn23)Nc2cccc(OC)c2)c1")
18
>>> experimental_result("CC(C)NC(=Nc1nc2nn(C)cc2c2nc(-c3ccco3)nn12)NC(C)C")
1
>>> experimental_result("Cn1cc2c(nc(N=C(Nc3cccc(Cl)c3)Nc3cccc(Cl)c3)n3nc(-c4ccco4)nc23)n1")
1
>>> experimental_result("Cn1cc2c(nc(N=C(Nc3ccc(C#N)cc3)Nc3ccc(C#N)cc3)n3nc(-c4ccco4)nc23)n1")
1

inhibition measured on Cn1cc2c(nc(N=C(Nc3ccc([N+](=O)[O-])cc3)Nc3ccc([N+](=O)[O-])cc3)n3nc(-c4ccco4)nc23)n1 = 1

inhibition measured on Cn1cc2c(nc(N=C(Nc3cccc(C(F)(F)F)c3)Nc3cccc(C(F)(F)F)c3)n3nc(-c4ccco4)nc23)n1 = 1

inhibition measured on Cn1cc2c(nc(N=C(Nc3ccc(Cl)cc3)Nc3ccc(Cl)cc3)n3nc(-c4ccco4)nc23)n1 = 11
